Would you mind telling me the reported half-life at 6000 µM of each entry?
# assay-remarks: Half life assessed as pig liver esterase-mediated compound hydrolysis at 6 mM by HPLC analysis
# Assay type: ADME, Sus scrofa
Dear colleague, please return just the value in min, with no unit written.

stdin: // query half-life at 6000 µM value for entry CCCCCCCCCCCCP(=O)(OCc1ccc(OC(=O)CCCCCCCCCCC)cc1)OP(=O)(O)OP(=O)(O)OC[C@@H]1C=C[C@H](n2cc(C)c(=O)[nH]c2=O)O1.N.N (some centres undefined)
stdout: 55

stdin: Endpoint output: half-life at 6000 µM of CCCCCCCCCCCCP(=O)(OCc1ccc(OC(=O)OCCCC)cc1)OP(=O)(O)OP(=O)(O)OC[C@@H]1C=C[C@H](n2cc(C)c(=O)[nH]c2=O)O1.N.N (some centres undefined) . Value?
stdout: 0.54

stdin: Look up half-life at 6000 µM for this compound: CCCCCCCCCCCCCCP(=O)(OCc1ccc(OC(=O)CCCC)cc1)OP(=O)(O)OP(=O)(O)OC[C@@H]1C=C[C@H](n2cc(C)c(=O)[nH]c2=O)O1.N.N (some centres undefined)
stdout: 4.86

stdin: Entry CCCCCCCCCCCCP(=O)(OCc1ccc(OC(C)=O)cc1)OP(=O)(O)OP(=O)(O)OC[C@@H]1C=C[C@H](n2cc(C)c(=O)[nH]c2=O)O1.N.N (some centres undefined) : reported half-life at 6000 µM = ?
stdout: 27.6

stdin: What does the data say about its half-life at 6000 µM? Entry: CCCCCCCCCCCCCCCCCCP(=O)(OCc1ccc(OC(=O)OCCCC)cc1)OP(=O)(O)OP(=O)(O)OC[C@@H]1C=C[C@H](n2cc(C)c(=O)[nH]c2=O)O1.N.N (some centres undefined)
stdout: 62.4

stdin: // lookup half-life at 6000 µM for CCCCCCCCCCCCCCP(=O)(OCc1ccc(OC(=O)OCCCC)cc1)OP(=O)(O)OP(=O)(O)OC[C@@H]1C=C[C@H](n2cc(C)c(=O)[nH]c2=O)O1.N.N (some centres undefined)
stdout: 1.92

stdin: Consider the compound CCCCCCCCCCCCP(=O)(OCc1ccc(OC(=O)CCCC)cc1)OP(=O)(O)OP(=O)(O)OC[C@@H]1C=C[C@H](n2cc(C)c(=O)[nH]c2=O)O1.N.N (some centres undefined) and give its measured half-life at 6000 µM.
stdout: 0.78

stdin: For the compound shown here, CCCCCCCCCCCCP(=O)(OCc1ccc(OC(=O)OCCCCCCCCCCC)cc1)OP(=O)(O)OP(=O)(O)OC[C@@H]1C=C[C@H](n2cc(C)c(=O)[nH]c2=O)O1.N.N (some centres undefined) , give the reported half-life at 6000 µM.
stdout: 636

stdin: Given the entry CCCCCCCCCCCCP(=O)(OCc1ccc(OC(=O)OC)cc1)OP(=O)(O)OP(=O)(O)OC[C@@H]1C=C[C@H](n2cc(C)c(=O)[nH]c2=O)O1.N.N (some centres undefined) , report its measured half-life at 6000 µM.
stdout: 42

stdin: Find the recorded half-life at 6000 µM belonging to CCCCCCCCCCCCCCCCCCP(=O)(OCc1ccc(OC(=O)CCCC)cc1)OP(=O)(O)OP(=O)(O)OC[C@@H]1C=C[C@H](n2cc(C)c(=O)[nH]c2=O)O1.N.N (some centres undefined) and report it.
stdout: 120

Values compiled from ChEMBL document CHEMBL4725417.
